# measuredTarget: SIRT1 (Homo sapiens)
# assayMethodText: Trp mass spectrometry assay (SIRT1 activation)
# Type: biochemical
# cond: Trp mass spectrometry assay; percent maximum fold activation of SIRT1; read-out: Tryp % Fold Act
# Protocol: Mass spectrometry based assays were used to identify modulators of SIRT1 activity. […] The peptide was labeled with the fluorophore 5TMR (excitation 540 nm/emission 580 nm) at the C-terminus. The sequence of the peptide substrate was based on p53 with several modifications. […] The Trp mass spectrometry assay was conducted as follows. […] Test compound was added at varying concentrations to this reaction mixture and the resulting reactions were monitored. […]
Listed next: entries and their corresponding Emax.
parameter: Emax

> print(dat)
                                 smilesrepr  observedmeasurement
1  Cc1cccnc1NC(=O)N1c2nc(-c3cccc(Cl)c3)ccc2N2CC[C@H]1C2               ≥ 150%
2  Cc1cnc2c(NC(=O)N3c4nc(-c5cccc(C(F)(F)F)c5)ccc4N4CC[C@H]3C4)cccc2n1               ≥ 150%
3  Cn1ccc(NC(=O)N2c3nc(-c4cccc(N5CCCC5)c4)ccc3N3CC[C@H]2C3)n1               ≥ 150%
4  O=C(Nc1cccnc1)N1c2nc(-c3cncc(C(F)(F)F)c3)ccc2N2C[C@@H](O)[C@H]1C2               ≥ 150%

###

The following compounds are listed with their measured EC50 values.
# measuredTarget: full-length hSIRT1 I227A (Homo sapiens, UniProt Q96EB6, I227A)
# Construct: The following point mutants of full-length hSIRT1 were generated; His6 (C)
# assayMethodText: SIRT1 activation dose-response, OAcADPr assay with Ac-p53(W5) substrate
# cond: hSIRT1 I227A; activation dose-response, Ac-p53(W5) substrate
parameter: EC50

> print(dat)
                                 smilesrepr  observedmeasurement
1  Cc1cnc2c(NC(=O)N3c4nc(-c5cccc(C(F)(F)F)c5)ccc4N4CC[C@H]3C4)cccc2n1              2.98 µM
2  O=C(Nc1ccccn1)N1c2nc(-c3cccc(C(F)(F)F)c3)ccc2N2CC[C@H]1C2              6.76 µM

###

# measuredTarget: SIRT1 (Homo sapiens, UniProt Q96EB6)
# assayMethodText: Trp mass spectrometry assay (SIRT1 activation)
# Format: biochemical
# cond: Trp mass spectrometry assay; EC1.5 = concentration of test compound that results in 150% activation of SIRT1
# Procedure: Mass spectrometry based assays were used to identify modulators of SIRT1 activity. […] The peptide was labeled with the fluorophore 5TMR (excitation 540 nm/emission 580 nm) at the C-terminus. The sequence of the peptide substrate was based on p53 with several modifications. […] The Trp mass spectrometry assay was conducted as follows. […] Test compound was added at varying concentrations to this reaction mixture and the resulting reactions were monitored. […]
parameter: Tryp AVG EC1.5 (μM)

> print(dat)
                                 smilesrepr  observedmeasurement
1  Cn1cc(NC(=O)N2c3nc(-c4cccc(Cl)c4)ccc3N3CC[C@H]2C3)cn1    B (EC1.5 1-25 μM)
2  Cc1nc(NC(=O)N2c3nc(-c4cccc(N5CCCC5)c4)ccc3N3CC[C@H]2C3)sc1C    B (EC1.5 1-25 μM)
3  Cn1ccc(NC(=O)N2c3nc(-c4cccc(C#N)c4)ccc3N3CC[C@H]2C3)n1    B (EC1.5 1-25 μM)
4  O=C(Nc1ccncn1)N1c2nc(-c3cccc(C(F)(F)F)c3)ccc2N2CC[C@@H]1C2    B (EC1.5 1-25 μM)
5  Cn1ccc(NC(=O)N2c3nc(-c4cccc(Cl)c4)ccc3N3CC[C@H]2C3)n1    B (EC1.5 1-25 μM)
6  COc1ccc(C)nc1NC(=O)N1c2nc(-c3cccc(C(F)(F)F)c3)ccc2N2CC[C@H]1C2    B (EC1.5 1-25 μM)
7  Cn1ncc2cc(NC(=O)N3c4nc(-c5cccc(C#N)c5)ccc4N4CC[C@H]3C4)ccc21       A (EC1.5<1 μM)
8  COc1cc(NC(=O)N2c3nc(-c4cccc(C(F)(F)F)c4)ccc3N3CCC2CC3)nc(OC)n1       A (EC1.5<1 μM)

###

# measuredTarget: SIRT1 (Homo sapiens)
# Sequence (Q96EB6 1-747): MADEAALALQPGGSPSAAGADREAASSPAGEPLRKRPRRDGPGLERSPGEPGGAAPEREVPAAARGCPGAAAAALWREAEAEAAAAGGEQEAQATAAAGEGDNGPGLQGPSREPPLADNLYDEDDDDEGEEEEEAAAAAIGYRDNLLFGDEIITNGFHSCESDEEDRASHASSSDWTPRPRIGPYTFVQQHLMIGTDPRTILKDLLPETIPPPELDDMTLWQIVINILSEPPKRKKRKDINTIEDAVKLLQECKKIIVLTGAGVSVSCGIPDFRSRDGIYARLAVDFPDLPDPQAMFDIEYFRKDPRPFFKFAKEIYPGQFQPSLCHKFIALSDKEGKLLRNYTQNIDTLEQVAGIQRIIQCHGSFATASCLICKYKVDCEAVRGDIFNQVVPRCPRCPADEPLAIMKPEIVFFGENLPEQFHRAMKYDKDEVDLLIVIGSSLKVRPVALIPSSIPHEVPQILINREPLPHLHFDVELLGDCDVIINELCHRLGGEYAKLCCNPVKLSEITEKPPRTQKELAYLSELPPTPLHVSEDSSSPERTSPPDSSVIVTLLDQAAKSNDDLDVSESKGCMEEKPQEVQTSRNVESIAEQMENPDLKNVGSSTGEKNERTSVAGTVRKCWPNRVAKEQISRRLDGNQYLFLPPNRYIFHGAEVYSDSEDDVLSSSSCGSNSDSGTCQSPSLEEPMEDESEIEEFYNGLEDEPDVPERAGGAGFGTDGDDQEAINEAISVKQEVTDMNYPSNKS
# assayMethodText: Trp mass spectrometry assay (SIRT1 activation)
# Format: biochemical
# cond: concentration of test compound that results in 150% activation of SIRT1; Trp peptide substrate
parameter: Tryp AVG EC1.5 (μM)

> print(dat)
                                    molecule        measuredtarget            parameter  observedmeasurement
 1  O=C(Nc1cnccn1)N1c2nc(-c3cncc(F)c3)ccc2N2CCC1CC2  SIRT1 (Homo sapiens)  Tryp AVG EC1.5 (μM)    B (EC1.5 1-25 μM)
 2  Cc1ccc(-c2ccc3c(n2)N(C(=O)Nc2cnccn2)[C@H]2CCN3C2)cn1  SIRT1 (Homo sapiens)  Tryp AVG EC1.5 (μM)    B (EC1.5 1-25 μM)
 3  COc1cc(NC(=O)N2c3nc(-c4cncc(F)c4)ccc3N3CCC2CC3)nc(OC)n1  SIRT1 (Homo sapiens)  Tryp AVG EC1.5 (μM)    B (EC1.5 1-25 μM)
 4  O=C(Nc1ccccn1)N1c2nc(-c3cccc(C(F)(F)F)c3)ccc2N2CCC[C@@H]1C2  SIRT1 (Homo sapiens)  Tryp AVG EC1.5 (μM)    B (EC1.5 1-25 μM)
 5  O=C(Nc1cnccn1)N1c2nc(-c3cc(F)cc(F)c3)ccc2N2CC[C@H]1C2  SIRT1 (Homo sapiens)  Tryp AVG EC1.5 (μM)      C (EC1.5>25 μM)
 6  Cc1nc(NC(=O)N2c3nc(-c4cccc(N(C)C)c4)ccc3N3CCC[C@@H]2C3)sc1C  SIRT1 (Homo sapiens)  Tryp AVG EC1.5 (μM)      C (EC1.5>25 μM)
 7  O=C(Nc1ccc(F)cn1)N1c2nc(-c3ccnc(N4CCC(F)(F)C4)c3)ccc2N2CC[C@H]1C2  SIRT1 (Homo sapiens)  Tryp AVG EC1.5 (μM)       A (EC1.5<1 μM)
 8  O=C(Nc1ccc(F)cn1)N1c2nc(N3CCCC(C(F)(F)F)C3)ccc2N2CCC[C@@H]1C2 (stereo partly shown)  SIRT1 (Homo sapiens)  Tryp AVG EC1.5 (μM)      C (EC1.5>25 μM)
 9  N#Cc1ccccc1-c1ccc2c(n1)N(C(=O)Nc1ccccn1)[C@H]1CCCN2C1  SIRT1 (Homo sapiens)  Tryp AVG EC1.5 (μM)    B (EC1.5 1-25 μM)
10  O=C(Nc1cnccn1)N1c2nc(-c3cccc(N4CC[C@H](F)C4)c3)ccc2N2CC[C@H]1C2  SIRT1 (Homo sapiens)  Tryp AVG EC1.5 (μM)       A (EC1.5<1 μM)
11  CS(=O)(=O)c1cccc(-c2ccc3c(n2)N(C(=O)Nc2cnccn2)[C@H]2CCN3C2)c1  SIRT1 (Homo sapiens)  Tryp AVG EC1.5 (μM)       A (EC1.5<1 μM)
12  O=C(Nc1ccc(F)cn1)N1c2nc(-c3ccnc(N4CC[C@@H](F)C4)c3)ccc2N2CC[C@H]1C2  SIRT1 (Homo sapiens)  Tryp AVG EC1.5 (μM)       A (EC1.5<1 μM)
13  O=C(Nc1cnccn1)N1c2nc(-c3cccc(C(F)(F)F)c3)ccc2N2CCC1CC2  SIRT1 (Homo sapiens)  Tryp AVG EC1.5 (μM)       A (EC1.5<1 μM)
14  O=C(Nc1cc(O)ncn1)N1c2nc(N3CCCC(C(F)(F)F)C3)ccc2N2CCC[C@H]1C2 (stereo partly shown)  SIRT1 (Homo sapiens)  Tryp AVG EC1.5 (μM)       A (EC1.5<1 μM)
15  COc1cnc(NC(=O)N2c3nc(-c4ccnc(C)c4)ccc3N3CC[C@H]2C3)cn1  SIRT1 (Homo sapiens)  Tryp AVG EC1.5 (μM)       A (EC1.5<1 μM)
16  O=C(Nc1cc(-c2cnco2)ccn1)N1c2nc(-c3cccc(C(F)(F)F)c3)ccc2N2CCC[C@H]1C2  SIRT1 (Homo sapiens)  Tryp AVG EC1.5 (μM)       A (EC1.5<1 μM)
17  O=C(Nc1ccc(F)cn1)N1c2nc(-c3ccnc(N4CC[C@H](F)C4)c3)ccc2N2CC[C@H]1C2  SIRT1 (Homo sapiens)  Tryp AVG EC1.5 (μM)       A (EC1.5<1 μM)
18  O=C(Nc1cccnc1)N1c2nc(-c3cncc(C(F)(F)F)c3)ccc2N2CCC[C@H]1C2  SIRT1 (Homo sapiens)  Tryp AVG EC1.5 (μM)       A (EC1.5<1 μM)
19  Cc1nn(C)c(C)c1-c1ccc2c(n1)N(C(=O)Nc1cccnc1)[C@H]1CCN2C1  SIRT1 (Homo sapiens)  Tryp AVG EC1.5 (μM)      C (EC1.5>25 μM)
20  O=C(Nc1ccccn1)N1c2nc(-c3cccc(N4CCOCC4)c3)ccc2N2CCC[C@H]1C2  SIRT1 (Homo sapiens)  Tryp AVG EC1.5 (μM)    B (EC1.5 1-25 μM)
21  O=C(NCCCN1CCOCC1)N1c2nc(-c3cccc(C(F)(F)F)c3)ccc2N2CC[C@H]1C2  SIRT1 (Homo sapiens)  Tryp AVG EC1.5 (μM)    B (EC1.5 1-25 μM)
22  COc1cc(NC(=O)N2c3nc(-c4ccnc(N5CCC(C(F)(F)F)C5)c4)ccc3N3CC[C@H]2C3)ncn1 (stereo partly shown)  SIRT1 (Homo sapiens)  Tryp AVG EC1.5 (μM)    B (EC1.5 1-25 μM)
23  COc1cc(NC(=O)N2c3nc(-c4cncc(C(F)(F)F)c4)ccc3N3CCC[C@H]2C3)ncn1  SIRT1 (Homo sapiens)  Tryp AVG EC1.5 (μM)       A (EC1.5<1 μM)
24  O=C(Nc1ccc(F)cn1)N1c2nc(-c3cccc(C(F)(F)F)n3)ccc2N2CC[C@H]1C2  SIRT1 (Homo sapiens)  Tryp AVG EC1.5 (μM)    B (EC1.5 1-25 μM)
25  Cc1ccc(-c2ccc3c(n2)N(C(=O)Nc2cncc(F)c2)[C@H]2CCN3C2)cn1  SIRT1 (Homo sapiens)  Tryp AVG EC1.5 (μM)    B (EC1.5 1-25 μM)
26  O=C(Nc1cc(Br)cc(-c2cnco2)c1)N1c2nc(-c3cccc(C(F)(F)F)c3)ccc2N2CC[C@H]1C2  SIRT1 (Homo sapiens)  Tryp AVG EC1.5 (μM)       A (EC1.5<1 μM)
27  O=C(Nc1ccc(F)cn1)N1c2nc(N3CCCC(C(F)(F)F)C3)ccc2N2CCC[C@H]1C2 (stereo partly shown)  SIRT1 (Homo sapiens)  Tryp AVG EC1.5 (μM)       A (EC1.5<1 μM)
28  O=C(Nc1cccc(-c2ccc(C(F)(F)F)cn2)c1)N1c2nc(-c3cccc(C(F)(F)F)c3)ccc2N2CC[C@H]1C2  SIRT1 (Homo sapiens)  Tryp AVG EC1.5 (μM)    B (EC1.5 1-25 μM)
29  O=C(Nc1cccnc1)N1c2nc(-c3cncc(Cl)c3)ccc2N2CC[C@H]1C2  SIRT1 (Homo sapiens)  Tryp AVG EC1.5 (μM)       A (EC1.5<1 μM)
30  O=C(Nc1cncc(F)c1)N1c2nc(-c3cncc(C(F)(F)F)c3)ccc2N2CCC[C@H]1C2  SIRT1 (Homo sapiens)  Tryp AVG EC1.5 (μM)       A (EC1.5<1 μM)
31  COc1cc(NC(=O)N2c3nc(-c4cncc(Cl)c4)ccc3N3CCC2CC3)ncn1  SIRT1 (Homo sapiens)  Tryp AVG EC1.5 (μM)      C (EC1.5>25 μM)

Source of measurements: patent US9765075B2
